molecular target: full-length human RORγt (Homo sapiens (Human)); assay: RORγt (full-length human) reporter assay, Conditions B or C; format: cell-based; details: RORγt (FL) Reporter Assay B or C, IC50
Recorded log10 of IC50 values for a group of compounds are listed next.
Hi team, quick reminder: these entries are log10 of IC50 (nM).

CC(C)(C)Nc1cc(C(F)F)c(-c2sc(C(=O)N[C@H]3CC[C@H](O)C3)nc2C(=O)N2C3CCC2CC3)cn1 | 1.30
C[C@H](NC(=O)c1nc(C(=O)N2C3CCC2CC3)c(-c2cnc(N[C@@H](C3CC3)C(F)(F)F)cc2C(F)F)s1)C(C)(C)O | 1.15
CC(C)(C)Nc1cc(C(F)F)c(-c2sc(C(=O)N[C@H]3CCC[C@@H]3O)nc2C(=O)N2C3CCC2CC3)cn1 | 1.49

log10 of IC50 for C[C@@H](NC(=O)c1nc(C(=O)N2C3CCC2CC3)c(-c2cnc(N[C@@H](C3CC3)C(F)(F)F)cc2C(F)F)s1)C(C)(C)O is 1.51

log10 of IC50 for C[C@H](Nc1cc(C(F)(F)F)c(-c2sc(C(=O)N[C@H]3COC[C@H]3O)nc2C(=O)N2C3CCC2CC3)cn1)C(F)(F)F (single isomer, unassigned) is 2.20

log10 of IC50 for O=C(N[C@@H]1CC[C@@H](O)C1)c1nc(C(=O)N2C3CCC2CC3)c(-c2cnc(N[C@@H](C3CC3)C(F)(F)F)cc2C(F)F)s1 is 1.20

----------
target: human RORγt ligand binding domain (RORγt LBD) (Homo sapiens (Human)); test: RORγt ThermoFluor® assay (thermal shift binding); details: read-out: ThermoFluor® Assay, Kd
Recorded Kd values for a group of compounds are listed next.
Give the value in nM but do not write nM after it.

Kd for O=C(N[C@H]1C[C@H](O)C1)c1nc(C(=O)N2C3CCC2CC3)c(-c2cnc(N[C@@H](C3CC3)C(F)(F)F)cc2C(F)F)s1 is 8.1

Kd for C[C@H]1CCCN1C(=O)c1nc(C(=O)NCC(C)(C)O)sc1-c1cnc(NCC2(C(F)(F)F)CC2)cc1C(F)F is 6.1

Kd for O=C(N[C@H]1COC[C@@H]1O)c1nc(C(=O)N2C3CCC2CC3)c(-c2cnc(N[C@@H](C3CC3)C(F)(F)F)cc2C(F)F)s1 is 2.4

Kd for C[C@@H](CO)NC(=O)c1nc(C(=O)N2CCC[C@@H]2C)c(-c2cnc(NC(C)(C)C)cc2C(F)(F)F)s1 is 4

Kd for C[C@H]1CCCN1C(=O)c1nc(C(=O)NCC(O)C(F)(F)F)sc1-c1cnc(NC(C)(C)C)cc1C(F)(F)F (stereo in doubt) is 1.1

Kd for C[C@H]1CCCN1C(=O)c1nc(C(=O)NCC2(O)CCC2)sc1-c1cnc(NC(C)(C)C)cc1C(F)(F)F is 1.2

----------
target: full-length human RORγt (Homo sapiens (Human), UniProt P51449); assay: RORγt (full-length human) reporter assay, Conditions B or C; format: cell-based; details: read-out: RORγt (FL) Reporter Assay B or C, IC50
Sequence (P51449 other isoform, or with tags, fused parts or gaps): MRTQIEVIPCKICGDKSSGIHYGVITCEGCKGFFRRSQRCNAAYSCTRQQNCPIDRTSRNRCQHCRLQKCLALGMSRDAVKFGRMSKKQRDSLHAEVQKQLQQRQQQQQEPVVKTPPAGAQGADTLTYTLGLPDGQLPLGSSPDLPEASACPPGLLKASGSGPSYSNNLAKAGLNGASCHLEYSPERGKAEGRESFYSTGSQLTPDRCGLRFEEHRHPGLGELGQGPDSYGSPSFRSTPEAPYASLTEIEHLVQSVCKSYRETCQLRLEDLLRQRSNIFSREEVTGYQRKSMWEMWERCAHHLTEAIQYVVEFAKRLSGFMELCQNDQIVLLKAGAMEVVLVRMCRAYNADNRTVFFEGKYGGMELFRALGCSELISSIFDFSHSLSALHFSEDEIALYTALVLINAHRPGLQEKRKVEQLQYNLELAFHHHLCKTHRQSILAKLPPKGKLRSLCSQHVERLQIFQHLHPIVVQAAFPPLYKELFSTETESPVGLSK
Recorded pIC50 values for a group of molecules are listed next.
pIC50 here is simply -log10 of the concentration when that concentration is written in mol/L.

Consider the following illustrative entries.
C[C@H]1CCCN1C(=O)c1nc(C(=O)N[C@H]2CC[C@@H]2O)sc1-c1cnc(NC(C)(C)C)cc1C(F)F (relative stereo) | 7.82
C[C@H]1CCCN1C(=O)c1nc(C(=O)N[C@H]2CC[C@@H]2O)sc1-c1cnc(NC(C)(C)C)cc1C(F)(F)F (relative stereo) | 7.72
CC[C@H](Nc1cc(C(F)F)c(-c2sc(C(=O)N3CC4CC(C3)O4)nc2C(=O)N2CCC[C@@H]2C)cn1)C(F)(F)F | 6.89
CC[C@H](Nc1cc(C(F)F)c(-c2sc(C(=O)NC3CCOCC3)nc2C(=O)N2CCC[C@@H]2C)cn1)C(F)(F)F | 7.47
C[C@H]1CCCN1C(=O)c1nc(C(=O)N[C@H]2C[C@@H](O)C2)sc1-c1cnc(NC(C)(C)C)cc1C(F)(F)F | 7.14

pIC50 for CC[C@H](Nc1cc(C(F)F)c(-c2sc(C(=O)N[C@H]3CC[C@@H]3O)nc2C(=O)N2CCC[C@@H]2C)cn1)C(F)(F)F (relative stereo) is 7.49

----------
Recorded Kd values for a group of molecules are listed next.
molecular target: human RORγt ligand binding domain (RORγt LBD) (Homo sapiens (Human)); test: RORγt ThermoFluor® assay (thermal shift binding); conditions: ThermoFluor® Assay, Kd (μM)
Give the value in µM but do not write µM after it.

Consider the following illustrative entries.
CC[C@@H](Nc1cc(C(F)(F)F)c(-c2sc(C(=O)NCC(C)(C)O)nc2C(=O)N2C3CCC2CC3)cn1)C1CC1 (stereo in doubt) [Example 131] | 0.0014
CC[C@H](Nc1cc(C(F)(F)F)c(-c2sc(C(=O)NCC(C)(C)O)nc2C(=O)N2C3CCC2CC3)cn1)C1CC1 (stereo in doubt) [Example 130] | 0.0016

Kd for C[C@H](Nc1cc(C(F)(F)F)c(-c2sc(C(=O)N[C@@H]3COC[C@@H]3O)nc2C(=O)N2C3CCC2CC3)cn1)C(F)(F)F (single isomer, unassigned) [Example 228] is 0.0023

----------
molecular target: full-length human RORγt (Homo sapiens (Human)); assay: RORγt (full-length human) reporter assay, Conditions B or C; type: cell-based; conditions: Conditions B or C; marked *: footnote not given
property.label: RORγt (FL) Reporter Assay B or C, % inhibition (value marked *)

Consider the following illustrative entries.
CC[C@H](Nc1cc(C(F)F)c(-c2sc(C(=O)N[C@@H]3C[C@@H]3O)nc2C(=O)N2CCC[C@@H]2C)cn1)C(F)(F)F (relative stereo) [Example 211] | 104* %
CC[C@H](Nc1cc(C(F)(F)F)c(-c2sc(C(=O)N[C@H]3COC[C@@H]3O)nc2C(=O)N2CCC[C@@H]2C)cn1)C(F)(F)F [Example 174] | 106* %
CC(C)(O)CNC(=O)c1nc(C(=O)N2C3CCC2CC3)c(-c2cnc(NCC(C)(C)C(F)(F)F)cc2C(F)(F)F)s1 [Example 122] | 102* %
CC[C@H](Nc1cc(C(F)F)c(-c2sc(C(=O)N[C@H](C)C(C)(C)O)nc2C(=O)N2CC(F)(F)C[C@@H]2C)cn1)C(F)(F)F [Example 245] | 98* %
C[C@H](Nc1cc(C(F)F)c(-c2sc(C(=O)N[C@H]3C[C@H](O)C3)nc2C(=O)N2CC(F)(F)C[C@@H]2C)cn1)C(F)(F)F [Example 191] | 98* %

Shifting focus to the compound that follows.
// returns RORγt (FL) Reporter Assay B or C, % inhibition (value marked *) for CC[C@H](Nc1cc(C(F)F)c(-c2sc(C(=O)NCC(C)(C)O)nc2C(=O)N2CCC[C@@H]2C)cn1)C(F)(F)F [Example 92] with full-length human RORγt (Homo sapiens (Human)); value = 106* %

----------
Recorded pKd values for a group of molecules are listed next.
molecular target: human RORγt ligand binding domain (RORγt LBD) (Homo sapiens (Human), UniProt P51449); experiment: RORγt ThermoFluor® assay (thermal shift binding); settings: read-out: ThermoFluor® Assay, Kd
Sequence (P51449 other isoform, or with tags, fused parts or gaps): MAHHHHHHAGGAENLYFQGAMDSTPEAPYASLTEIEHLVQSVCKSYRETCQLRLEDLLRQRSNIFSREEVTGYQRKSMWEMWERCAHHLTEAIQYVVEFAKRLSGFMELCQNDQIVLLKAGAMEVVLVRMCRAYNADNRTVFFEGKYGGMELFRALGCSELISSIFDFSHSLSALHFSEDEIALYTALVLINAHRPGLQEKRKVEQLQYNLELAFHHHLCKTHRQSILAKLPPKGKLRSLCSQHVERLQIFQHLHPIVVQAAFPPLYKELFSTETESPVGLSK
pKd here is simply -log10 of the concentration when that concentration is written in mol/L.

Consider the following illustrative entries.
CC[C@H](Nc1cc(C(F)F)c(-c2sc(C(=O)N[C@H](C)[C@H](C)O)nc2C(=O)N2CCC[C@@H]2C)cn1)C(F)(F)F (relative stereo) | 8.11
CC[C@H](Nc1cc(C(F)F)c(-c2sc(C(=O)N[C@@H](C)C(C)(C)O)nc2C(=O)N2C3CCC2CC3)cn1)C(F)(F)F | 8.47
C[C@H]1CCCN1C(=O)c1nc(C(N)=O)sc1-c1cnc(NC(C)(C)C)cc1C(F)(F)F | 7.02

pKd for CC(C)(O)CNC(=O)c1nc(C(=O)N2C3CCC2CC3)c(-c2cnc(NCC(C)(C)C(F)(F)F)cc2C(F)(F)F)s1 is 8.77

----------
target: human RORγt ligand binding domain (RORγt LBD) (Homo sapiens (Human)); experiment: RORγt ThermoFluor® assay (thermal shift binding); conditions: read-out: ThermoFluor® Assay, Kd
property.label: pKd
pKd here is simply -log10 of the concentration when that concentration is written in mol/L.

Consider the following illustrative entries.
C[C@H](NC(=O)c1nc(C(=O)N2CC(F)(F)C[C@@H]2C)c(-c2cnc(NC3(C)CCC3)cc2C(F)(F)F)s1)C(C)(C)O [Example 195] | 9.37
CC[C@H](Nc1cc(C(F)F)c(-c2sc(C(=O)N3CC4(CCO4)C3)nc2C(=O)N2CCC[C@@H]2C)cn1)C(F)(F)F [Example 385] | 7.00
C[C@H]1CCCN1C(=O)c1nc(C(=O)NC(C)(C)CO)sc1-c1cnc(NC(C)(C)C)cc1C(F)(F)F [Example 339] | 9.01

pKd for CC[C@H](Nc1cc(C(F)F)c(-c2sc(C(=O)N[C@H]3C[C@H](O)C3)nc2C(=O)N2CC(F)(F)C[C@@H]2C)cn1)C(F)(F)F [Example 449] is 8.68

pKd for CC[C@H](Nc1cc(C(F)F)c(-c2sc(C(=O)N[C@H]3COC[C@@H]3O)nc2C(=O)N2C3CCC2CC3)cn1)C(F)(F)F [Example 209] is 8.47

pKd for C[C@H](Nc1cc(C(F)F)c(-c2sc(C(=O)N[C@H](C)C(C)(C)O)nc2C(=O)N2CC(F)(F)C[C@@H]2C)cn1)C(F)(F)F [Example 198] is 8.60
